conditions: 303.15 K; 25000 kPa; Liquid
ASSAY_READOUT: mass density (kg/m3)
State the answer as a number, implicitly in kg/m3.

Enquiry: Entry under review: CCn1cc[n+](C)c1.COS(=O)(=O)[O-] [1-ethyl-3-methylimidazolium methylsulfate] . Reported mass density?
Return: 1293.4

Enquiry: What do we get for CCOS(=O)(=O)[O-].CCn1cc[n+](C)c1 [1-ethyl-3-methylimidazolium ethyl sulfate] ?
Return: 1251.1

Enquiry: What do we get for `CCCCCCCCCCn1cc[n+](C)c1.O=S(=O)([N-]S(=O)(=O)C(F)(F)F)C(F)(F)F` ?
Return: 1292.9

Enquiry: What do we get for CCn1cc[n+](CC)c1.O=S(=O)([N-]S(=O)(=O)C(F)(F)F)C(F)(F)F [1,3-diethylimidazolium bis[(trifluoromethyl)sulfonyl]imide] ?
Return: 1477.1

====

conditions: 393.15 K; 35000 kPa; Liquid
Could you please report measured mass density for the items listed next?
State the answer as a number, implicitly in kg/m3.

Enquiry: Entry under review: `CCCCCCCCCCn1cc[n+](C)c1.O=S(=O)([N-]S(=O)(=O)C(F)(F)F)C(F)(F)F` . Reported mass density?
Return: 1225.9

Enquiry: What do we get for CCn1cc[n+](C)c1.COS(=O)(=O)[O-] [1-ethyl-3-methylimidazolium methylsulfate] ?
Return: 1234.9

Enquiry: What do we get for CCn1cc[n+](CC)c1.O=S(=O)([N-]S(=O)(=O)C(F)(F)F)C(F)(F)F [1,3-diethylimidazolium bis[(trifluoromethyl)sulfonyl]imide] ?
Return: 1398.6

Enquiry: What do we get for CCOS(=O)(=O)[O-].CCn1cc[n+](C)c1 [1-ethyl-3-methylimidazolium ethyl sulfate] ?
Return: 1194.6

====

Could you please report measured mass density for the items listed next?
conditions: 353.15 K; 20000 kPa; Liquid
State the answer as a number, implicitly in kg/m3.

Enquiry: Entry under review: CCn1cc[n+](C)c1.COS(=O)(=O)[O-] [1-ethyl-3-methylimidazolium methylsulfate] . Reported mass density?
Return: 1255.6

Enquiry: What do we get for `CCCCCCCCCCn1cc[n+](C)c1.O=S(=O)([N-]S(=O)(=O)C(F)(F)F)C(F)(F)F` ?
Return: 1246.2

Enquiry: What do we get for CCn1cc[n+](CC)c1.O=S(=O)([N-]S(=O)(=O)C(F)(F)F)C(F)(F)F [1,3-diethylimidazolium bis[(trifluoromethyl)sulfonyl]imide] ?
Return: 1423.4

Enquiry: What do we get for CCOS(=O)(=O)[O-].CCn1cc[n+](C)c1 [1-ethyl-3-methylimidazolium ethyl sulfate] ?
Return: 1213.8

====

Could you please report measured mass density for the items listed next?
conditions: 293.15 K; 2500 kPa; Liquid
Numbers after ± are expanded uncertainties.
Hey, just the number and the unit after it is fine.

Enquiry: Entry under review: `CCCCCCCCCCn1cc[n+](C)c1.O=S(=O)([N-]S(=O)(=O)C(F)(F)F)C(F)(F)F` . Reported mass density?
Return: 1285.6 ± 2.5 kg/m3

Enquiry: What do we get for CCOS(=O)(=O)[O-].CCn1cc[n+](C)c1 [1-ethyl-3-methylimidazolium ethyl sulfate] ?
Return: 1249 ± 2.4 kg/m3

Enquiry: What do we get for CCn1cc[n+](CC)c1.O=S(=O)([N-]S(=O)(=O)C(F)(F)F)C(F)(F)F [1,3-diethylimidazolium bis[(trifluoromethyl)sulfonyl]imide] ?
Return: 1471.1 ± 3 kg/m3

Enquiry: What do we get for CCn1cc[n+](C)c1.COS(=O)(=O)[O-] [1-ethyl-3-methylimidazolium methylsulfate] ?
Return: 1293 ± 2.5 kg/m3

====

Could you please report measured mass density for the items listed next?
conditions: 313.15 K; 20000 kPa; Liquid
State the answer as a number, implicitly in kg/m3.

Enquiry: Entry under review: CCn1cc[n+](C)c1.COS(=O)(=O)[O-] [1-ethyl-3-methylimidazolium methylsulfate] . Reported mass density?
Return: 1285.1

Enquiry: What do we get for `CCCCCCCCCCn1cc[n+](C)c1.O=S(=O)([N-]S(=O)(=O)C(F)(F)F)C(F)(F)F` ?
Return: 1280.7

Enquiry: What do we get for CCOS(=O)(=O)[O-].CCn1cc[n+](C)c1 [1-ethyl-3-methylimidazolium ethyl sulfate] ?
Return: 1241.6

Enquiry: What do we get for CCn1cc[n+](CC)c1.O=S(=O)([N-]S(=O)(=O)C(F)(F)F)C(F)(F)F [1,3-diethylimidazolium bis[(trifluoromethyl)sulfonyl]imide] ?
Return: 1463.5

====

Could you please report measured mass density for the items listed next?
settings: 293.15 K; 100 kPa; Liquid
State the answer as a number, implicitly in kg/m3.

Enquiry: Entry under review: CCOS(=O)(=O)[O-].CCn1cc[n+](C)c1 [1-ethyl-3-methylimidazolium ethyl sulfate] . Reported mass density?
Return: 1246.9

Enquiry: What do we get for CCn1cc[n+](CC)c1.O=S(=O)([N-]S(=O)(=O)C(F)(F)F)C(F)(F)F [1,3-diethylimidazolium bis[(trifluoromethyl)sulfonyl]imide] ?
Return: 1469.2

Enquiry: What do we get for `CCCCCCCCCCn1cc[n+](C)c1.O=S(=O)([N-]S(=O)(=O)C(F)(F)F)C(F)(F)F` ?
Return: 1282.4

Enquiry: What do we get for CCn1cc[n+](C)c1.COS(=O)(=O)[O-] [1-ethyl-3-methylimidazolium methylsulfate] ?
Return: 1292.1

====

settings: 293.15 K; 7500 kPa; Liquid
Could you please report measured mass density for the items listed next?
State the answer as a number, implicitly in kg/m3.

Enquiry: Entry under review: CCn1cc[n+](C)c1.COS(=O)(=O)[O-] [1-ethyl-3-methylimidazolium methylsulfate] . Reported mass density?
Return: 1295

Enquiry: What do we get for CCn1cc[n+](CC)c1.O=S(=O)([N-]S(=O)(=O)C(F)(F)F)C(F)(F)F [1,3-diethylimidazolium bis[(trifluoromethyl)sulfonyl]imide] ?
Return: 1475

Enquiry: What do we get for CCOS(=O)(=O)[O-].CCn1cc[n+](C)c1 [1-ethyl-3-methylimidazolium ethyl sulfate] ?
Return: 1251.3

Enquiry: What do we get for `CCCCCCCCCCn1cc[n+](C)c1.O=S(=O)([N-]S(=O)(=O)C(F)(F)F)C(F)(F)F` ?
Return: 1289.3

====

details: 298.15 K; 7500 kPa; Liquid
ASSAY_READOUT: mass density (kg/m3)
State the answer as a number, implicitly in kg/m3.

Enquiry: Entry under review: `CCCCCCCCCCn1cc[n+](C)c1.O=S(=O)([N-]S(=O)(=O)C(F)(F)F)C(F)(F)F` . Reported mass density?
Return: 1284.6

Enquiry: What do we get for CCn1cc[n+](CC)c1.O=S(=O)([N-]S(=O)(=O)C(F)(F)F)C(F)(F)F [1,3-diethylimidazolium bis[(trifluoromethyl)sulfonyl]imide] ?
Return: 1469.5

Enquiry: What do we get for CCOS(=O)(=O)[O-].CCn1cc[n+](C)c1 [1-ethyl-3-methylimidazolium ethyl sulfate] ?
Return: 1247.4

Enquiry: What do we get for CCn1cc[n+](C)c1.COS(=O)(=O)[O-] [1-ethyl-3-methylimidazolium methylsulfate] ?
Return: 1291.1

====

details: 303.15 K; 20000 kPa; Liquid
ASSAY_READOUT: mass density (kg/m3)
State the answer as a number, implicitly in kg/m3.

Enquiry: Entry under review: CCn1cc[n+](CC)c1.O=S(=O)([N-]S(=O)(=O)C(F)(F)F)C(F)(F)F [1,3-diethylimidazolium bis[(trifluoromethyl)sulfonyl]imide] . Reported mass density?
Return: 1473.6

Enquiry: What do we get for CCOS(=O)(=O)[O-].CCn1cc[n+](C)c1 [1-ethyl-3-methylimidazolium ethyl sulfate] ?
Return: 1249.1

Enquiry: What do we get for `CCCCCCCCCCn1cc[n+](C)c1.O=S(=O)([N-]S(=O)(=O)C(F)(F)F)C(F)(F)F` ?
Return: 1289.4

Enquiry: What do we get for CCn1cc[n+](C)c1.COS(=O)(=O)[O-] [1-ethyl-3-methylimidazolium methylsulfate] ?
Return: 1291.4

====

settings: 313.15 K; 15000 kPa; Liquid
Could you please report measured mass density for the items listed next?
State the answer as a number, implicitly in kg/m3.

Enquiry: Entry under review: CCn1cc[n+](CC)c1.O=S(=O)([N-]S(=O)(=O)C(F)(F)F)C(F)(F)F [1,3-diethylimidazolium bis[(trifluoromethyl)sulfonyl]imide] . Reported mass density?
Return: 1459.7

Enquiry: What do we get for CCOS(=O)(=O)[O-].CCn1cc[n+](C)c1 [1-ethyl-3-methylimidazolium ethyl sulfate] ?
Return: 1239.5

Enquiry: What do we get for `CCCCCCCCCCn1cc[n+](C)c1.O=S(=O)([N-]S(=O)(=O)C(F)(F)F)C(F)(F)F` ?
Return: 1277

Enquiry: What do we get for CCn1cc[n+](C)c1.COS(=O)(=O)[O-] [1-ethyl-3-methylimidazolium methylsulfate] ?
Return: 1283
